- testedTarget: oxidosqualene cyclase (Rattus norvegicus)
- Construct: Oxidosqualene cyclase is purified from rat liver microsomes; from tissue; host or cells: rat liver microsomes (lauryl maltoside solubilization, FPLC anion-exchange chromatography)
- Sequence (P48450 1-733): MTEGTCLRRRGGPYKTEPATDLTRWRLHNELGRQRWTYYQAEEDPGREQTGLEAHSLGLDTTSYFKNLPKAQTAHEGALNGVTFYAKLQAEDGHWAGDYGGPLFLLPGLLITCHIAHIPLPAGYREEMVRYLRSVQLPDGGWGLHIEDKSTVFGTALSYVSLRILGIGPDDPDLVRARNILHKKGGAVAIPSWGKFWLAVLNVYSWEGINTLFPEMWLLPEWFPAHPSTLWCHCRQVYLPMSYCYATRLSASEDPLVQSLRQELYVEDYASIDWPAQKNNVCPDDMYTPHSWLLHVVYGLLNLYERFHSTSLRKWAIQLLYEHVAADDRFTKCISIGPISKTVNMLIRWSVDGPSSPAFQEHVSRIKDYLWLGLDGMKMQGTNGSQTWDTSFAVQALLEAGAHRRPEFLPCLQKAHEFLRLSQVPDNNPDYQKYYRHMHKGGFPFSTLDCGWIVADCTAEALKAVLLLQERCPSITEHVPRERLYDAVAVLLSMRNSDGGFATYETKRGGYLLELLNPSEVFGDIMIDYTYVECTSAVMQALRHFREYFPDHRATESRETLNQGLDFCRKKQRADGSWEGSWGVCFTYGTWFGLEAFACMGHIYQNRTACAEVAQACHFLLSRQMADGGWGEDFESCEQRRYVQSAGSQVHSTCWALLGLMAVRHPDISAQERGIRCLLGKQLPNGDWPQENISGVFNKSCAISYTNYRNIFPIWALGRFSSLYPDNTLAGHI
- measurementDescription: Inhibition of Purified Oxidosqualene Cyclase (I10)
- Type: biochemical
- experimentalConditions: 10 μM test compound; oxidosqualene cyclase purified from rat liver microsomes; [3H]squalene monoepoxide 10 μM; pH 7.4
reportedMetric: inhibition at 10 µM (%)

{"compound": "CCCCCCCCCCCCS(=O)(=O)N1CCC(C(C)CO)CC1 (centres unmarked) [102,055]", "testedTarget": "oxidosqualene cyclase (Rattus norvegicus)", "experimentalValue": 29}
{"compound": "CC(C)CCSCCCCC(=O)N1CCC(C(C)CO)CC1 (centres unmarked) [100,759]", "testedTarget": "oxidosqualene cyclase (Rattus norvegicus)", "experimentalValue": 76}
{"compound": "CC(C)CCSCCCCC(=O)N1CCCCC1 [101,140]", "testedTarget": "oxidosqualene cyclase (Rattus norvegicus)", "experimentalValue": 38}

[1] CCCCCCCCCCCC[S+]([O-])N1CCC(C(C)CO)CC1 (centres unmarked) [101,915]
[2] CC(CO)C1CCN(C(=O)CCCCSc2ccccc2)CC1 (centres unmarked) [101,550]
[Q] Which record shows the lower inhibition at 10 µM: the first, 1 , or the second, 2 ? # reply format: chosen label
[A] 1
